Attribution: PubChem BioAssay (NCI)

As shown below, each of these compounds has a reported growth value.
system: U251 CNS; assay: NCI-60 one-dose screen, 48 h (100 = growth as untreated, 0 = no growth, -100 = all killed); details: 10 µM unless noted
The panel holds about 83,000 compounds, 20% with a hit somewhere; the sample as a whole holds those more often. Activity calls are given as the source filed them. The calls were made as follows: active = growth percent below 10; inactive = the rest.

As a guide, the following entries are already answered.
COC1CC2c3ccccc3C1C(C)=[N+]2C (centres undefined) :: 99.1% (inactive)
CCOC(=O)[C@@H](C)C[C@H](Cc1ccccc1)NC(=O)c1csc([C@@H](C[C@H](C(C)C)N(C)C(=O)[C@H](CC)NC(=O)[C@H]2CCCCN2C)OC(C)=O)n1 :: 11.7% (inactive)
COC(=O)CC12CC(NC(=O)c3csc([C@@H](C[C@H](C(C)C)N(C)C(=O)[C@@H](NC(=O)[C@H]4CCCCN4C)C(C)C)OC(C)=O)n3)(C1)C2 :: 17.3% (inactive)

Continue with the next compound.
// query # query: growth of entry Fc1ccc(N2COOC3(OOC2)C2CC4CC(C2)CC3C4)cc1
// result 97.1% (inactive)
